Molecular target: T1, human GFRα3 expressed with a C-terminal myc-myc-hexahistidine tag (human, UniProt O60609 32-374, biotinylated (sites not given) in ELISA format 2 and in the Octet cross-competition; not in SPR)
T1 construct: also called hGFRα3-mmh; hGFRα3-mmH
T1 sequence (O60609 other isoform, or with tags, fused parts or gaps limits assumed): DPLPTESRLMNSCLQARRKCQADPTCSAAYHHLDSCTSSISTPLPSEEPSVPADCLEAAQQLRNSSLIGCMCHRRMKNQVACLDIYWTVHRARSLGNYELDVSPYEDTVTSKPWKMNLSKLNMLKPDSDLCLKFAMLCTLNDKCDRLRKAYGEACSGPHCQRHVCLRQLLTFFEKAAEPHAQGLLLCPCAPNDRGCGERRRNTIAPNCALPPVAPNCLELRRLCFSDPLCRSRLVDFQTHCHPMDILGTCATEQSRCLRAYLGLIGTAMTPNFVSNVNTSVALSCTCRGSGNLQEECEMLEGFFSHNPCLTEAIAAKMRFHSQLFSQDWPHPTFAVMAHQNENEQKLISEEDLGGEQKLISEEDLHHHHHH
Assay: Octet cross-competition; biotin-hGFRα3-mmH pre-saturated with first antibody H4H2342P
Documented binding response of second antibody (nm) across a set of binders

| binder | units.text | binding response of second antibody (nm) |
| --- | --- | --- |
| H4H2243N2 (antibody, human IgG4, V domains shown, human IgG4 Fc (H4H)) VH: QVQLVQSGAEVKKPGASVKVSCKASGYTFTSYGIIWVRQAPGQGLEWMGWISGYNGNTNYAQNLQGRVTMTTDTSTTTAYMELRSLRSDDTAVYYCARWGIATRPYYYYGMDVWGQGTTVTVSS VL: DIQMTQSPSSLSASVGDRVTITCRASQDITNYLAWFQQKPGKAPKSLIYAASSLQSGVPSKFSGSGSGTDFTLTISSLQPEDFATYYCQQYNSYPPTFGPGTKVDIK | nm | 0.11 |
| H4H2357S (antibody, human IgG4, V domains shown, human IgG4 Fc (H4H)) VH: EVQLVESGGGLVQPGGSLRLSCAASTFTFSSYAMTWVRQAPGKGLEWVSSISGSGDSTYYADSVKGRFTISRDNSKNTLFLQMNSLRAEDTAVYYCAKKDGPGRYYVRYGMDVWGQGTTVTVSS VL: DIQMTQSPSSVSASVGDRVTITCRASQGISSWLAWYQQKPGKAPKLLIYTTSSLQSGVPSRFSGSGSGTDFTLTISSLQPEDFATYYCQQANSFPLTFGGGTKVDIK | nm | 0.25 |
